Sourced from ChEMBL document CHEMBL1961873

system_tested: Tyrosine-protein kinase receptor TYRO3 (Homo sapiens) (UniProt Q06418);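 note: reported percentages are averaged inhibition values of TYRO3 kinase activity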
Sequence (Q06418 whole entry): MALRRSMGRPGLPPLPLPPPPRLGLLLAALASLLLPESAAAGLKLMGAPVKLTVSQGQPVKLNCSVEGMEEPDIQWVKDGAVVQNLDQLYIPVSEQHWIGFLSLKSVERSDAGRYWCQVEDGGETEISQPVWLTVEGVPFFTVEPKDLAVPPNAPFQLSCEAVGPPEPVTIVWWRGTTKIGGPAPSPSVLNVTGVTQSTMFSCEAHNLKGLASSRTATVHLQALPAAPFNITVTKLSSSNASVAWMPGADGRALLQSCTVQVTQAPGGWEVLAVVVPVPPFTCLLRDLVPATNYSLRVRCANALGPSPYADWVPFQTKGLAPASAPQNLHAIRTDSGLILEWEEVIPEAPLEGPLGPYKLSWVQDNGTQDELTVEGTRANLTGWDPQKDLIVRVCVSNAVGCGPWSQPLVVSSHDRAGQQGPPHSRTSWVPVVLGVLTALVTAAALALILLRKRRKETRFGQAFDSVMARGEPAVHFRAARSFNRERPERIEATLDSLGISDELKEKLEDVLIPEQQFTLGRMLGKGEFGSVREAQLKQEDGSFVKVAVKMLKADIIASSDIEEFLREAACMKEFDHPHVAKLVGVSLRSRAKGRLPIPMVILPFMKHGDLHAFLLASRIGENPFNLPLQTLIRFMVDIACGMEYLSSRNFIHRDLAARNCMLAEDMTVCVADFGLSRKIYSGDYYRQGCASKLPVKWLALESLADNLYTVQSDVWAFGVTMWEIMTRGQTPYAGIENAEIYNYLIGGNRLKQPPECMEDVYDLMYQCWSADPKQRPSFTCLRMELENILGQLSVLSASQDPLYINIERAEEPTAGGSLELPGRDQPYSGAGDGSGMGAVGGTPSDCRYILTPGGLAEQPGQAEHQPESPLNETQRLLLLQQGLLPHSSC
condition: at 0.1 µM
recorded_metric: inhibition

Example entries begin here.
molecule: O=C(Nc1ccc(Oc2ccc3[nH]c(NC(=O)c4ccco4)nc3c2)cc1)Nc1cc(C(F)(F)F)ccc1F
inhibition: 5.34%

molecule: NS(=O)(=O)c1ccc(Nc2cc(-c3cccc(O)c3)n[nH]2)cc1
inhibition: 3.41%

molecule: COc1cc2ncn(-c3cc(OCc4ccccc4S(C)(=O)=O)c(C#N)s3)c2cc1OC
inhibition: 4.94%

molecule: Nc1nccc(-c2c(-c3ccc(F)cc3)ncn2CCCN2CCOCC2)n1
inhibition: 3.82%

Give a short answer stating reported inhibition for `COc1ccc2ncnc(Nc3ccc(OCc4ccccc4)cc3)c2c1` .
1.22%

Give a short answer stating reported inhibition for `N#Cc1c(NC(=O)c2ccccc2F)sc2c1CCCC2` .
-1.29%

Give a short answer stating reported inhibition for `C[C@@H](Oc1cc(-n2cnc3ccc(OCC4CCN(C)CC4)cc32)sc1C(N)=O)c1ccccc1C(F)(F)F` .
-0.92%

Give a short answer stating reported inhibition for `CN(C)C(=O)O[C@@H]1CN[C@@H](C#Cc2cc3ncnc(Nc4ccc(OCc5cccc(F)c5)c(Cl)c4)c3s2)C1` .
-0.78%

Give a short answer stating reported inhibition for `CC(C)c1ccc(Nc2nccc(-c3cnn4ncccc34)n2)cc1` .
2.38%

Give a short answer stating reported inhibition for `c1ccc(Nc2ncc(-c3ccccc3)o2)cc1` .
4.31%

Give a short answer stating reported inhibition for `Cc1ccc2c(-c3ccnc(Nc4cccc(C(F)(F)F)c4)n3)c(-c3ccccc3)nn2n1` .
2.7%

Give a short answer stating reported inhibition for `NC(=O)c1sc(-n2cnc3ccccc32)cc1OCc1ccccc1Br` .
1.17%

Give a short answer stating reported inhibition for `NS(=O)(=O)c1ccc(N/N=C2\C(=O)Nc3ccc(Cl)cc32)cc1` .
3.25%

* * *

system_tested: cAMP-dependent protein kinase catalytic subunit alpha (Homo sapiens) (UniProt P17612);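 note: mean percent inhibition of PKA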
condition: at 1 µM
recorded_metric: inhibition (%)
Express the result in % but write the number alone.

Example entries begin here.
smiles_data: FC(F)(F)c1ccc(-c2nn3ncccc3c2-c2ccnc(Nc3ccc4c(c3)OCCO4)n2)cc1
recorded_metric: inhibition
observed_value: 6.96
--
smiles_data: NC(=O)c1sc(-n2cnc3ccccc32)cc1OCc1ccccc1Br
recorded_metric: inhibition
observed_value: 4.48
--
smiles_data: COc1cc(Nc2nccc(-c3cnn4ncccc34)n2)cc(OC)c1
recorded_metric: inhibition
observed_value: 10.7
--
smiles_data: CCS(=O)(=O)c1ccc(OC)c(Nc2ncc(-c3cccc(OC)c3)o2)c1
recorded_metric: inhibition
observed_value: 1.26
--
smiles_data: COc1cccc(-n2ncc3c(N/N=C/c4ccc(C)cc4)ncnc32)c1
recorded_metric: inhibition
observed_value: 2.93

Give a short answer stating reported inhibition for `CCn1c(-c2nonc2N)nc2ccc(F)cc21` .
6.34

Give a short answer stating reported inhibition for `OCc1ccc(-c2nc(-c3ccccn3)c(-c3ccc4c(c3)OCO4)[nH]2)cc1` .
1.95

* * *

system_tested: Serine/threonine-protein kinase pim-1 (Homo sapiens)
condition: at 0.1 µM
Entries and their measured inhibition follow.
Express the result in % but write the number alone.

Example entries begin here.
smiles_data: CCn1c(-c2nonc2N)nc2ccc(F)cc21
system_tested: Serine/threonine-protein kinase pim-1 (Homo sapiens)
unit_string: %
inhibition: 0.08

smiles_data: O=C1Nc2ccccc2/C1=C/Nc1ccc2[nH]c(=O)[nH]c2c1
system_tested: Serine/threonine-protein kinase pim-1 (Homo sapiens)
unit_string: %
inhibition: -0.21

smiles_data: COC(=O)c1ccc2c(c1)C(=Cc1cc(Br)c(O)c(Br)c1)C(=O)N2
system_tested: Serine/threonine-protein kinase pim-1 (Homo sapiens)
unit_string: %
inhibition: 8.81

smiles_data: CN(C)CCCn1c(-c2nonc2N)nc2cnccc21
system_tested: Serine/threonine-protein kinase pim-1 (Homo sapiens)
unit_string: %
inhibition: 2.81

smiles_data: CN(c1ccc(NC(=O)Nc2ccc(OC(F)(F)F)cc2)cc1)c1ccnc(Nc2cccc(S(N)(=O)=O)c2)n1
system_tested: Serine/threonine-protein kinase pim-1 (Homo sapiens);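 note: reported value is the mean inhibition of PIM1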
unit_string: %
inhibition: 0.23

Give a short answer stating reported inhibition for `Cc1cc(O)cc(C)c1/C=C/c1cncc(C(=O)N(C)C)c1` .
1.21

Give a short answer stating reported inhibition for `Cc1nc(-c2ccccc2)n2nc(NCCCN3CCOCC3)ncc12` .
-0.82

Give a short answer stating reported inhibition for `C[C@@H](Oc1cc(-n2cnc3ccc(OC[C@@H](O)CO)cc32)sc1C(N)=O)c1ccccc1Cl` .
2.14

Give a short answer stating reported inhibition for `COc1cc(Nc2nccc(-c3cnn4ncccc34)n2)cc(OC)c1` .
1.41

Give a short answer stating reported inhibition for `COc1ccc2ncnc(Nc3ccc(OCc4ccccc4)cc3)c2c1` .
0.17

Give a short answer stating reported inhibition for `CS(=O)(=O)Nc1cccc(-c2ccc3c(NC(=O)C4CC4)n[nH]c3c2)c1` .
0.69

Give a short answer stating reported inhibition for `Oc1cccc(-c2nc(-c3ccccc3)[nH]c2-c2ccncc2)c1` .
0.8

Give a short answer stating reported inhibition for `COC(=O)c1cncc(/C=C/c2c(C)cc(O)cc2C)c1` .
1.57

Give a short answer stating reported inhibition for `CN(C)C(=O)O[C@H]1CN[C@H](C#Cc2cc3ncnc(Nc4ccc(OCc5cccc(F)c5)c(Cl)c4)c3s2)C1` .
-0.09

Give a short answer stating reported inhibition for `O=C1Nc2ccc(-c3cccnc3)cc2C1=Cc1cc(Br)c(O)c(Br)c1` .
6.4

Give a short answer stating reported inhibition for `Cc1ccc2c(-c3ccnc(Nc4ccc5c(c4)OCCO5)n3)c(-c3ccc(C(F)(F)F)cc3)nn2n1` .
-0.32

Give a short answer stating reported inhibition for `ON=C1CCc2cc(-c3nc(C4CCNCC4)[nH]c3-c3ccncc3)ccc21` .
1

Give a short answer stating reported inhibition for `COc1cccc(-n2nc(C)c3c(N/N=C(\C)c4ccncc4)ncnc32)c1` .
-0.49

Give a short answer stating reported inhibition for `Nc1nccc(-c2c(-c3ccc(F)cc3)nn3cc(C(F)(F)F)ccc23)n1` .
0.21

Give a short answer stating reported inhibition for `NS(=O)(=O)c1ccc(Nc2cc(-c3cccc(O)c3)n[nH]2)cc1` .
-0.06

Give a short answer stating reported inhibition for `O=C(Nc1ccc(Oc2ccc3[nH]c(NC(=O)c4ccco4)nc3c2)cc1)Nc1cc(C(F)(F)F)ccc1F` .
0.14
